biological target: Glucocorticoid receptor (Homo sapiens) (UniProt P04150); assay: GR-GFP Redistribution (AID 450); settings: U2OS GR-GFP nuclear translocation, laser cytometry, 2 h; series mostly up to 20.6 µM
Sequence (P04150 whole entry, looked up): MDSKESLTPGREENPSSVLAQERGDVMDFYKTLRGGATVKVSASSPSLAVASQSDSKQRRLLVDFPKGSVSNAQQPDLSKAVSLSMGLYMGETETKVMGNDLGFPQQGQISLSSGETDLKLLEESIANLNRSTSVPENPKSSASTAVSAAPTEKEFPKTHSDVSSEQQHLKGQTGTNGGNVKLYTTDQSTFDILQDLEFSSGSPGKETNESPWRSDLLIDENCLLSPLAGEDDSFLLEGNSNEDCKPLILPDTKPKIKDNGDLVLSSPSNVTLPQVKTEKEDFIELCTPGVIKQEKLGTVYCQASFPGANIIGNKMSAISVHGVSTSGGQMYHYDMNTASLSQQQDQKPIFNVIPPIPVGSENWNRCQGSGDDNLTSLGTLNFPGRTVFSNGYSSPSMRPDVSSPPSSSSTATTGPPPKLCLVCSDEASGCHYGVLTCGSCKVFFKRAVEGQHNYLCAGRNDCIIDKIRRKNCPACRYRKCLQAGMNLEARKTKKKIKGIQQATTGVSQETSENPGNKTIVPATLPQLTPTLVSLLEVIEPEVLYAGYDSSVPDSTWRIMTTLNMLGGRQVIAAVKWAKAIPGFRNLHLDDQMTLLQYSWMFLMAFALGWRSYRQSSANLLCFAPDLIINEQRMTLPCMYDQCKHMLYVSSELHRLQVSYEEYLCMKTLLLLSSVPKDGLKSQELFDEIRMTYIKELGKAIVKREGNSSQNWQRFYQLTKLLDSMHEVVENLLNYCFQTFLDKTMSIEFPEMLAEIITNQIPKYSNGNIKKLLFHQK
Activity calls are given as the source filed them.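 Rule for the calls: active = compounds whose dose series gives a full or clear partial fitted curve of increased nuclear translocation; inconclusive = weak partial curve or effect only at the top dose; inactive = no dose-dependent translocation response.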
Could you please pick one outcome from this set? active, inactive

State the result this test recorded for CCCCC(=O)NC(Nc1ccc(C)cn1)(C(=O)OCC)C(F)(F)F (stereo unspecified) .
inactive

Next:
State the result this test recorded for Fc1ccc2[nH]c3c(N4CCN(c5ccccc5)CC4)ncnc3c2c1 .
inactive

Param item: C[C@H](O)[C@@H]1C(=O)N2C(C(=O)O)=C(SCCN=CN)C[C@@H]12
inactive

Param item: Cn1c(=O)c2c(nc(NCc3ccco3)n2Cc2ccccc2Cl)n(C)c1=O
inactive
